Biological target: PTHR1 receptor
Sequence (P25961 whole entry): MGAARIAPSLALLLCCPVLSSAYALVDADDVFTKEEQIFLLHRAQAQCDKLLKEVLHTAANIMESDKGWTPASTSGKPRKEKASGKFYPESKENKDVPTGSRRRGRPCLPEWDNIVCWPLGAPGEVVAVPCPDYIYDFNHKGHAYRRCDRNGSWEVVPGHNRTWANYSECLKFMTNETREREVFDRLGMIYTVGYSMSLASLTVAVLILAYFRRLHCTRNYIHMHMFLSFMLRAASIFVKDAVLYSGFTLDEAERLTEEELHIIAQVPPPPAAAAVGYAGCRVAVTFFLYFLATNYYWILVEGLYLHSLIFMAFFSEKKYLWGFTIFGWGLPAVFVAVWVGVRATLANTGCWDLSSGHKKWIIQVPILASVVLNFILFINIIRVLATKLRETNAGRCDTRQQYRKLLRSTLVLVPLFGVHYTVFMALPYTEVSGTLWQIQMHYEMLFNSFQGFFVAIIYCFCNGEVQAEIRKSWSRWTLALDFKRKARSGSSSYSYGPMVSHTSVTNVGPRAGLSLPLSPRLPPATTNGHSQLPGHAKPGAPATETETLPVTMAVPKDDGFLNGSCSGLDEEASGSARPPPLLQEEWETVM
* marks the point of attachment. Palmitoyl = CCCCCCCCCCCCCCCC(=O)*
Recorded endpoint: Inhibition of Maximal Response (%)
Note: unit % is implicit; provide only the numeric part.

Worked cases, answers included:
Palmitoyl-RQQYRKLLKSTL-NH2 (SMILES CCCCCCCCCCCCCCCC(=O)N[C@@H](CCCNC(=N)N)C(=O)N[C@@H](CCC(N)=O)C(=O)N[C@@H](CCC(N)=O)C(=O)N[C@@H](Cc1ccc(O)cc1)C(=O)N[C@@H](CCCNC(=N)N)C(=O)N[C@@H](CCCCN)C(=O)N[C@@H](CC(C)C)C(=O)N[C@@H](CC(C)C)C(=O)N[C@@H](CCCCN)C(=O)N[C@@H](CO)C(=O)N[C@H](C(=O)N[C@@H](CC(C)C)C(N)=O)[C@@H](C)O) [Compound 57] ... -38.8
Palmitoyl-LAYFRRLHSTRNYI-NH2 (SMILES CCCCCCCCCCCCCCCC(=O)N[C@@H](CC(C)C)C(=O)N[C@@H](C)C(=O)N[C@@H](Cc1ccc(O)cc1)C(=O)N[C@@H](Cc1ccccc1)C(=O)N[C@@H](CCCNC(=N)N)C(=O)N[C@@H](CCCNC(=N)N)C(=O)N[C@@H](CC(C)C)C(=O)N[C@@H](Cc1c[nH]cn1)C(=O)N[C@@H](CO)C(=O)N[C@H](C(=O)N[C@@H](CCCNC(=N)N)C(=O)N[C@@H](CC(N)=O)C(=O)N[C@@H](Cc1ccc(O)cc1)C(=O)N[C@H](C(N)=O)[C@@H](C)CC)[C@@H](C)O) [Compound 9] ... 12.7
Palmitoyl-TNAGRSDTRQQYRF-NH2 (SMILES CCCCCCCCCCCCCCCC(=O)N[C@H](C(=O)N[C@@H](CC(N)=O)C(=O)N[C@@H](C)C(=O)NCC(=O)N[C@@H](CCCNC(=N)N)C(=O)N[C@@H](CO)C(=O)N[C@@H](CC(=O)O)C(=O)N[C@H](C(=O)N[C@@H](CCCNC(=N)N)C(=O)N[C@@H](CCC(N)=O)C(=O)N[C@@H](CCC(N)=O)C(=O)N[C@@H](Cc1ccc(O)cc1)C(=O)N[C@@H](CCCNC(=N)N)C(=O)N[C@@H](Cc1ccccc1)C(N)=O)[C@@H](C)O)[C@@H](C)O) [Compound 70] ... 15.1

Shift focus to the following entry.
Q: What Inhibition of Maximal Response value was documented for this binder, Palmitoyl-KLRETNAGRSDTRQQY-NH2 (SMILES CCCCCCCCCCCCCCCC(=O)N[C@@H](CCCCN)C(=O)N[C@@H](CC(C)C)C(=O)N[C@@H](CCCNC(=N)N)C(=O)N[C@@H](CCC(=O)O)C(=O)N[C@H](C(=O)N[C@@H](CC(N)=O)C(=O)N[C@@H](C)C(=O)NCC(=O)N[C@@H](CCCNC(=N)N)C(=O)N[C@@H](CO)C(=O)N[C@@H](CC(=O)O)C(=O)N[C@H](C(=O)N[C@@H](CCCNC(=N)N)C(=O)N[C@@H](CCC(N)=O)C(=O)N[C@@H](CCC(N)=O)C(=O)N[C@@H](Cc1ccc(O)cc1)C(N)=O)[C@@H](C)O)[C@@H](C)O) [Compound 53] ?
Ans: 6.4
